measurement protocol: amyloid nucleation score (Sup35N fusion, yeast selection) (log enrichment); library NNK2; higher = more nucleation; inactive = no reads after selection;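 further: zero at mode of non-aggregating sequences after 7 days selection at 30°C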
Outcome label depends on amyloid nucleation score relative to 0.3: at/above gives 1, below gives -1.

| substance | label value |
| --- | --- |
| SISRVVTWNRLRVKACRWAG | 1 |
| KLIMFCDMLKVRSNNFRSRK | 1 |
| LLRSEVGDLILPCVLERCRP | 1 |
| GFLELCMFKVFFQRCARTIS | -1 |
| FCMVGLCMCGRQEMCGSTDS | 1 |
| LGTSRGNDVENRAYSRWVKV | 1 |
| LLLCGNSRGQDEASSIVFTM | 1 |
| VMFILVYTLFP | -1 |
| SRIEHMACLRRP | 1 |
| SQHGVKNLSSRFESLIA | -1 |
| WHCLLGLNYLFGYVSYSTSW | 1 |
| RPLSAEACPYVCTVSWDGLW | 1 |
| GHVDCWYGRVTALGQAKYE | 1 |
| IQLIQML | -1 |
| LKMCYFLRNKPTQMHVSGVY | -1 |
| NQMCIATFHHMAYT | 1 |
| EVIANWLENGYYVSKTVFVD | -1 |
| VKTRCVVHCMNNFPGCMIEL | 1 |
| FTGRETFQRKRFAAVLSSSV | -1 |
| SPRLAGVWVH | -1 |
| MNFCGNRCPFSLYIPWTACV | -1 |
| SESHICGV | -1 |
| GMIVLRCSRSCWFVQTKADG | 1 |
| FCDVQDFAVLSGVELLNLSY | -1 |
| LSGSPVYCYCRLR | -1 |
| LYLYGDYV | 1 |
| TLRHSKFTSIPVIETGLCGV | -1 |
| YQMADVPLNRMGHYPVYEGW | -1 |
| ILYMTDKLDQSSCLGLMSSH | -1 |
| CIYHGANRIYLSDVA | 1 |
| WDCAWVLGLVAEGRLT | 1 |
| FFVESRSCSGYKMMKRCLDV | 1 |
| LFIDDVPVDSITYGIWARGC | -1 |
| ASAYSPASRRSTDMADALV | 1 |
| VAFFWIKFH | -1 |
| QRCISGNTNSVCRLEYRWLM | 1 |
| NSYWWFANK | 1 |
| LISATPQSSFHHFEMNSGSH | -1 |
| LSSLTLSMVA | 1 |
| RRYGKW | 1 |
| TVMCLNLLR | 1 |
| QLPFWGWNCMAKLTVTLHSR | 1 |
| SLSFCVLEVSTCGCMSGYVG | 1 |
| VWLTMKVAILPCSQRIEKMV | 1 |
| AFSVFSWSFQWQTSCWQICE | 1 |
| NVLWVDSSLFRNLRPTSERE | -1 |

* * *

Listing: amyloid nucleation score of selected substances
measurement protocol: amyloid nucleation score (Sup35N fusion, yeast selection) (log enrichment); library NNK1; higher = more nucleation; inactive = no reads after selection

| substance | amyloid nucleation score |
| --- | --- |
| QRRHMCCVNAFFRDMRKGIG | 1.63 |
| VSMHYYAGTYSLNNSLV | -0.819 |
| VIKSRP | 0.639 |
| KFNITFVSVKSYKVPLSLDI | 4.81 |
| YDILNGQAHDCYETMVKGWG | -0.372 |
| LWEIRILLL | -0.994 |
| QTGKRYGTFLGYDGLEGRPD | -0.502 |
| LNFVNAPRSHMSGYSIGGLC | -1.5 |
| LYFMSISTMAIRSCGVGLHQ | 0.235 |
| LPCSRRTTPSDVCP | -0.271 |
| CMSLYRGFLTPEWNIFVWLA | 0.514 |
| TMSHCVRRCGVMGGVVAFKG | -0.031 |
| MAVFSIDRVVPVVTGGCIAE | 0.035 |
| DIPVSHGAYL | -0.378 |
| PTPEANAIKGLYQRGNCVYG | -0.515 |
| FCWKLGANIDVDECWRWAAD | 1.29 |
| LLGYRTYEMEHSCILRPRNK | 0.887 |
| CRASYGFHVQRDALDR | -0.438 |
| FSRCCTFSSDYFNARCIERN | 1.22 |
| LWFQLLMLEFSRNKPIQTVG | -0.138 |
| YLNSFLYVMLFLVPDRSVTR | 6.18 |
| QYPRFHVTGTGRLCGSRMSY | -0.382 |
| VRDSVTLFPK | -0.277 |
| IASECWET | -0.391 |
| LCLILVGSY | 0.062 |
| LVELNIGTTLCWQMRLRNVG | -0.037 |
| IALLNGNNLSPT | 9.5 |
| VFSFLPSYGHKCTAKQFFSA | -0.3 |
| FIFLRYGLYVFFASLNGQGY | -0.33 |
| CLQCKCYNNCVQLRVTVGCM | 1.37 |
| LTQLYLVTSSTWVNYSYLKW | 0.742 |
| CTPALLGLAIIQQGNTWLGI | 2.63 |
| YGSAVVRQCFG | -0.114 |
| FSSSTRSLNNPLL | 0.006 |
| IVTCESGCRLKSSRDKCPSR | 0.284 |
| QTGAAFMVAASRGKKTGVLR | 0.327 |
| FGGWNYYYLAVQYIFLDTGV | 2.45 |
| FHVDDHKWRLPDGELSRTAM | -0.341 |
| RDVECQLVSMHKGMWKLVEE | -0.041 |
| FYYYSSCHYWYC | -0.13 |
| KVTLNFRSHSLENCDAYNKY | 3.15 |

Values were extracted from the supplement of paper PMC12042874.
